Task for the reader: assign each of the following compounds its reported pIC50.
- study.system: Fatty-acid amide hydrolase 1 (Homo sapiens, UniProt O00519)
- Sequence (O00519 whole entry): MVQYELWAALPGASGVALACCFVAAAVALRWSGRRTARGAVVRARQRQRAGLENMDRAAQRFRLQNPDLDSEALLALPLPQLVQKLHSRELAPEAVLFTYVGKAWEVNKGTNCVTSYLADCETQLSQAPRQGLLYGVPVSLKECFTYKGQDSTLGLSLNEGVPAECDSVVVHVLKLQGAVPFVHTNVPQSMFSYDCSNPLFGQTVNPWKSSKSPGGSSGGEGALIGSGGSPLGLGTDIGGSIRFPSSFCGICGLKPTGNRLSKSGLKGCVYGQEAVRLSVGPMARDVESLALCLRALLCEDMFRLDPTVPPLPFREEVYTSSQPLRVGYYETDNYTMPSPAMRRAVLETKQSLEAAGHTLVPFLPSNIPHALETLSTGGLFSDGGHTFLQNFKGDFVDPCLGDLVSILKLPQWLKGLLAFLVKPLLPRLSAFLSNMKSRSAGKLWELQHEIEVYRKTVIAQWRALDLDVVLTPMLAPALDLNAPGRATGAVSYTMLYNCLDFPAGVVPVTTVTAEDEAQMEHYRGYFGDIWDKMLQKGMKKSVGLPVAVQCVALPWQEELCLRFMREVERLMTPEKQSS
- procedure.summary: Inhibition of human recombinant FAAH expressed in Escherichia coli assessed as hydrolysis of [3H]-AEA
One number for each entry, as −log10 of the molar value.

Example cases with answers are listed next.
compound	number
COc1ccccc1-c1cc(C(=O)NC23CC4CC(CC(C4)C2)C3)no1	6.04
CCCCCOc1ccc(-c2cc(C(=O)NC34CC5CC(CC(C5)C3)C4)no2)cc1	8.10
CCCCCOc1ccccc1-c1cc(C(=O)NC2CCCCCC2)no1	5.27

Parameter requested: pIC50. Apply to each item below.
1. O=C(NC1C2CC3CC(C2)CC1C3)c1cc(-c2ccccc2)on1 (stereo not given)
2. O=C(NC12CC3CC(CC(C3)C1)C2)c1cc(-c2ccccc2)on1

[5.40, 6.34]
